Data provenance: PubChem BioAssay AID1851

target: Cytochrome P450 3A4 (Homo sapiens) (UniProt P08684); assay: Cytochrome panel assay with activity outcomes; conditions: recombinant CYP, pro-luciferin dealkylation, luminescence, p450-cyp3a4; series mostly up to 57.1 µM
Sequence (P08684 whole entry, looked up): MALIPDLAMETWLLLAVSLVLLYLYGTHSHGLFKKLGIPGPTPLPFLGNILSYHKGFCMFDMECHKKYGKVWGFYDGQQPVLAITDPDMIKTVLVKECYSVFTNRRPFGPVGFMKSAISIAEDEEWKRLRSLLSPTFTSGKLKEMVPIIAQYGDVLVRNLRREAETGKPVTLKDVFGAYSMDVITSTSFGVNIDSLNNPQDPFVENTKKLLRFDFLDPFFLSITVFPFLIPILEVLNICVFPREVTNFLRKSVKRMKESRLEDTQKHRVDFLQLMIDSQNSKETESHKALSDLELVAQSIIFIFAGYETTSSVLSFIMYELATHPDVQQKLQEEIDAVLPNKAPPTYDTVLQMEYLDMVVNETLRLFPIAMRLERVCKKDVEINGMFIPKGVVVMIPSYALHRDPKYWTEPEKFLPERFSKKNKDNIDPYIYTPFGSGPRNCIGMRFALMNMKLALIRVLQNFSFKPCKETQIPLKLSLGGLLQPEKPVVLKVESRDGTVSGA
The whole screen tested about 16,000 compounds, of which about 5,100 (32%) were called active. Roughly 25% stayed inconclusive and do not appear here. Calls follow the shape of the dose curve; as a rule, active = well fitted curve in the direction sought with a large enough effect; inconclusive = small, poorly fitted or top-dose-only effect, or effect the other way; inactive = no such curve, though single readings can be large or run the other way. The list shows a part of the results.
Form entry, call: pick from active, inactive

# Compound, Group
measured = [
    ("CCOc1nc(N2CCCCC2)nc(-n2cc(-c3ccccc3)nn2)n1", "active"),
    ("C#CCSc1nnc(-c2cc3c(C(F)(F)F)nn(C)c3s2)n1C", "active"),
    ("COc1cccc(-c2cc(NCc3ccccc3OC)ncn2)c1", "active"),
    ("CC(C)CN(C)c1nc(N)c(C(=O)N=C(N)N)nc1Cl", "inactive"),
    ("CCCc1cc(=O)[nH]c(=S)[nH]1", "inactive"),
    ("CN(Cc1ccco1)c1ccnc(-c2cccc(NS(C)(=O)=O)c2)n1", "active"),
    ("COc1cccc(-c2ccc3ncnc(NCCc4c[nH]c5ccc(OC)cc45)c3c2)c1", "active"),
    ("CC(C)NC(=O)N1CCC2(CC1)CCN(C(=O)c1ccco1)CC2", "inactive"),
    ("COc1cccc(-c2noc(-c3cccnc3)n2)c1", "active"),
    ("Nc1cccc(OCc2nc(N)nc(N)c2-c2ccc(Cl)cc2)c1", "active"),
]

Prompt: Per the records of this test, what outcome belongs to O=C(N/N=C/C=C/c1ccc([N+](=O)[O-])cc1)c1cccs1 ?
Completion: inactive

Prompt: Per the records of this test, what outcome belongs to CN(C)c1ncc2nc(-c3ccccc3)c(=O)n(CCc3ccccc3)c2n1 ?
Completion: inactive

Prompt: Per the records of this test, what outcome belongs to CN(Cc1ccco1)c1cc(-c2cccc(NS(C)(=O)=O)c2)ncn1 ?
Completion: active

Prompt: Per the records of this test, what outcome belongs to CN1CCN(CCC=C2c3ccccc3Sc3ccc(S(=O)(=O)N(C)C)cc32)CC1 ?
Completion: active

Prompt: Per the records of this test, what outcome belongs to O=C(Cc1ccc(Cl)cc1)N1CCN(C(=O)c2ccco2)CC1 ?
Completion: inactive

Prompt: Per the records of this test, what outcome belongs to Cn1c(=O)cc(OCC(=O)NCc2cccnc2)c2ccccc21 ?
Completion: active

Prompt: Per the records of this test, what outcome belongs to CC1Cc2ccccc2N1C(=O)c1cc2c(=O)n3ccccc3nc2n1C (centres undefined) ?
Completion: inactive

Prompt: Per the records of this test, what outcome belongs to CN(C)c1ncc2nc(CCc3ccccc3)c(=O)n(-c3ccccc3)c2n1 ?
Completion: active

Prompt: Per the records of this test, what outcome belongs to COc1cccc(/C=c2/s/c(=C(\C#N)C(=O)N3CCOCC3)n(-c3ccccc3)c2=O)c1 ?
Completion: inactive

Prompt: Per the records of this test, what outcome belongs to CC1(C)S[C@@H]2[C@H](NC(=O)[C@H](C(=O)O)c3ccsc3)C(=O)N2[C@H]1C(=O)O ?
Completion: inactive

Prompt: Per the records of this test, what outcome belongs to Cc1ccc(C(=O)N/C(=C\c2ccc(Br)cc2)c2nc(=S)[nH][nH]2)cc1 ?
Completion: active

Prompt: Per the records of this test, what outcome belongs to COc1ccc2[nH]cc(CCNc3ncnc4ccc(-c5cccc(C#N)c5)cc34)c2c1 ?
Completion: active

Prompt: Per the records of this test, what outcome belongs to COc1cccc(-c2nccc(NC3CCNCC3)n2)c1 ?
Completion: inactive

Prompt: Per the records of this test, what outcome belongs to CN(C)c1ncc2nc(-c3ccc(Cl)cc3)c(=O)n(Cc3cccs3)c2n1 ?
Completion: inactive

Prompt: Per the records of this test, what outcome belongs to COCCn1c(=O)c(CCc2ccccc2)nc2cnc(N(C)C)nc21 ?
Completion: active

Prompt: Per the records of this test, what outcome belongs to O=C(Nc1cccc2ccccc12)/C(=C/c1ccc([N+](=O)[O-])cc1)NC(=O)c1ccccc1 ?
Completion: active

###

target: Cytochrome P450 3A4 (Homo sapiens) (UniProt P08684); assay: Cytochrome panel assay with activity outcomes; conditions: recombinant CYP, pro-luciferin dealkylation, luminescence, p450-cyp3a4; series mostly up to 57.1 µM; as to activity, negative = inhibition: % is scaled to controls: 0 for no effect and ±100 for the full control effect
Out of some 16,000 compounds screened, about 5,100 (32%) were called active. Roughly 25% stayed inconclusive and do not appear here. The list shows a part of the results.
Measured Quantity: activity, negative = inhibition

Below, 10 compounds whose answers are already recorded.
# Molecule Smiles, activity, negative = inhibition
measured = [
    ("Cn1cnc([N+](=O)[O-])c1SCC(=O)O", "-11.5% [at 11.4 µM] (inactive)"),
    ("CCOC(=O)CNC(=O)c1cccnc1", "4.45% [at 11.4 µM] (inactive)"),
    ("O=C(NC(=S)Nc1ccc(Br)cn1)c1cncc(Br)c1", "-24.4% [at 2.29 µM] (inactive)"),
    ("COC(=O)[C@H](C)NC(=O)C/C=C\\[C@@H](C)[C@H]1C=C[C@H](O)[C@@H](CO)O1", "-25.2% [at 11.4 µM] (inactive)"),
    ("CC(C)CC(=O)O/N=C1\\C(=O)N(c2ccccc2)c2ccccc21", "18.9% [at 2.29 µM] (inactive)"),
    ("CCO[P@]1(=O)OC[C@@H]2O[C@H](n3cnc4c(N)ncnc43)[C@H](O)[C@@H]2O1", "7.34% [at 11.4 µM] (inactive)"),
    ("O[C@@H](c1cc(C(F)(F)F)nc2c(Cl)cc(Cl)cc12)[C@@H]1CCCCN1", "-21% [at 11.4 µM] (inactive)"),
    ("CCOC(=O)N1CCN(C(=O)c2ccc(NC(C)=O)cc2)CC1", "-1.46% [at 2.29 µM] (inactive)"),
    ("N#CC(CC(=O)O)=C(c1ccccc1)c1ccccc1", "5.39% [at 11.4 µM] (inactive)"),
    ("CCOC(=O)CCCN", "-12.7% [at 11.4 µM] (inactive)"),
]

Value of measured activity, negative = inhibition for the entry CC(=O)OC[C@H]1O[C@@H](O/N=C\[C@@H](C)[C@H](OCc2ccccc2)C(C)C)[C@H](OC(C)=O)[C@@H](OC(C)=O)[C@H]1OC(C)=O : -74.7% [at 11.4 µM] (inactive)

###

target: Cytochrome P450 3A4 (Homo sapiens) (UniProt P08684); assay: Cytochrome panel assay with activity outcomes; settings: recombinant CYP, pro-luciferin dealkylation, luminescence, p450-cyp3a4; series mostly up to 57.1 µM
Hit rate of the full screen: of about 16,000 compounds, about 5,100 (32%) were called active. Not shown: some 25% with an inconclusive outcome. Calls come from the whole dose curve; as a rule, active = well fitted curve in the direction sought with a large enough effect; inconclusive = small, poorly fitted or top-dose-only effect, or effect the other way; inactive = no such curve, though single readings can be large or run the other way. The list shows a part of the results.
Form entry, call: pick from active, inactive

# Molecule Smiles, Group
measured = [
    ("COc1ccc(-n2c(=O)[nH]cc(C(=O)Nc3ccc4c(c3)OCCO4)c2=O)cc1", "active"),
]

Prompt: Per the records of this test, what outcome belongs to CCCCc1c2ccccc2nc2[nH]c3ccccc3c12 ?
Completion: active

Prompt: Per the records of this test, what outcome belongs to CCCCCc1nc2c(=O)[nH]c3ccccc3c2o1 ?
Completion: inactive

Prompt: Per the records of this test, what outcome belongs to O=C(O)[C@H]1CCCNC1 ?
Completion: inactive

Prompt: Per the records of this test, what outcome belongs to Cc1cc(C)n(-c2ccc(Cl)c(C(=O)O)n2)n1 ?
Completion: inactive

Prompt: Per the records of this test, what outcome belongs to O=[N+]([O-])c1ccc2nc(-c3ccccc3)n(OCc3ccc(Cl)cc3)c2c1 ?
Completion: inactive

###

target: Cytochrome P450 3A4 (Homo sapiens) (UniProt P08684); experiment: Cytochrome panel assay with activity outcomes; details: recombinant CYP, pro-luciferin dealkylation, luminescence, p450-cyp3a4; series mostly up to 57.1 µM
Out of some 16,000 compounds screened, about 5,100 (32%) were called active. Roughly 25% stayed inconclusive and do not appear here. Calls come from the whole dose curve; as a rule, active = well fitted curve in the direction sought with a large enough effect; inconclusive = small, poorly fitted or top-dose-only effect, or effect the other way; inactive = no such curve, though single readings can be large or run the other way. This is one part of the list.
Form entry, call: pick from Yes (active), No (inactive)

Sample answers from the record:
# Molecule, Group
records = [
    ("c1ccc(CNc2ncncc2-c2cccnc2)cc1", "Yes"),
    ("COc1ccccc1CN1CCC2(CC1)CCN(S(C)(=O)=O)CC2", "No"),
    ("NC(=O)c1ccc(-c2nc(-c3ccc4c(c3)OCO4)c(-c3ccccn3)[nH]2)cc1", "Yes"),
    ("N[C@@H](CSS(=O)(=O)O)C(=O)O", "No"),
    ("Cc1cccc(CNc2ncncc2-c2cccnc2)c1", "Yes"),
]

Prompt: Per the records of this test, what outcome belongs to COc1ccccc1CN1CCC2(CC1)CCN(S(=O)(=O)c1ccccc1)CC2 ?
Completion: No

Prompt: Per the records of this test, what outcome belongs to CCCC[C@@H]1C[C@H]1C(NC(=O)c1cccnc1)c1ccc(Cl)cc1 (stereo partly drawn) ?
Completion: Yes

Prompt: Per the records of this test, what outcome belongs to Fc1cccc(Cl)c1CSc1ncn[nH]1 ?
Completion: Yes
